Run Conditions: 303.15 K; 101 kPa; Liquid; Capillary tube (Ostwald / Ubbelohde) method
Readout Kind: viscosity (mPa·s)

compound=Cc1cccc([N+](=O)[O-])c1 quantitative_result=1.777
compound=Cc1cccc(Cl)c1 quantitative_result=0.78
compound=Clc1cccc(Cl)c1 quantitative_result=1.025
compound=Cc1ccccc1Cl quantitative_result=0.887
compound=Clc1ccc(Cl)c(Cl)c1 quantitative_result=1.613
compound=Clc1ccccc1Cl quantitative_result=1.302
compound=Cc1ccc(Cl)cc1 quantitative_result=0.9
compound="C[S+](C)[O-] [dimethyl sulfoxide]" quantitative_result=1.803
compound=Cc1ccccc1[N+](=O)[O-] quantitative_result=1.911

* * *

# mass density per entry
Run Conditions: 303.15 K; 101 kPa; Liquid; Pycnometric method
Readout Kind: mass density (kg/m3)

compound="C[S+](C)[O-] [dimethyl sulfoxide]" unit_symbol=kg/m3 quantitative_result=1091.35
compound=Clc1ccc(Cl)c(Cl)c1 unit_symbol=kg/m3 quantitative_result=1442.14
compound=Cc1ccccc1[N+](=O)[O-] unit_symbol=kg/m3 quantitative_result=1153.24
compound=Clc1cccc(Cl)c1 unit_symbol=kg/m3 quantitative_result=1277.12
compound=Cc1ccc(Cl)cc1 unit_symbol=kg/m3 quantitative_result=1060.54
compound=Cc1cccc([N+](=O)[O-])c1 unit_symbol=kg/m3 quantitative_result=1147.67
compound=Cc1cccc(Cl)c1 unit_symbol=kg/m3 quantitative_result=1065.21
compound=Clc1ccccc1Cl unit_symbol=kg/m3 quantitative_result=1299.24
compound=Cc1ccccc1Cl unit_symbol=kg/m3 quantitative_result=1072.81

* * *

Recorded speed of sound by entry
Run Conditions: 303.15 K; 101 kPa; Liquid
Readout Kind: speed of sound (m/s)

compound="Cc1cccc(Cl)c1 [3-chlorotoluene]" unit_symbol=m/s quantitative_result=1280
compound="Clc1ccc(Cl)c(Cl)c1 [1,2,4-trichlorobenzene]" unit_symbol=m/s quantitative_result=1260
compound="Clc1ccccc1Cl [1,2-dichlorobenzene]" unit_symbol=m/s quantitative_result=1261
compound="Clc1cccc(Cl)c1 [1,3-dichlorobenzene]" unit_symbol=m/s quantitative_result=1242
compound="Cc1ccccc1Cl [2-chlorotoluene]" unit_symbol=m/s quantitative_result=1284
compound="C[S+](C)[O-] [dimethyl sulfoxide]" unit_symbol=m/s quantitative_result=1470
compound="Cc1ccc(Cl)cc1 [4-chlorotoluene]" unit_symbol=m/s quantitative_result=1271

From: the NIST ThermoML archive (doi:10.1016/j.jct.2006.04.005)
